- Test system: Mycobacteroides abscessus
- TEST: Antibacterial activity against Mycobacterium abscessus Bamboo harboring inactive clarithromycin-sensitive erm41 C28 sequevar assessed as bacterial growth inhibition incubated for 3 days in 7H9 medium by optical density based method
- Assay type: functional
- CONDITION_INFO: 72 h, time 3 day
In this section we review reported MIC50 values for a set of molecules.
MEASURE_NAME: MIC50 (µM)

- O=C(N[C@H](Cc1ccsc1)C(=O)Nc1ccccc1N1CC[S+]([O-])CC1)c1ccccc1F: 1.5
- O=C(N[C@H](Cc1ccc(O)cc1)C(=O)Nc1cc(F)ccc1N1CCSCC1)c1ccccc1F: 1.7
- O=C(N[C@H](Cc1ccccc1)C(=O)Nc1ccccc1N1CCS(=O)(=O)CC1)c1cccs1: 0.24
- O=C(N[C@H](Cc1ccccc1)C(=O)Nc1cc(F)ccc1N1CC[S+]([O-])CC1)c1cccs1: 0.28
- O=C(N[C@H](Cc1ccccc1)C(=O)Nc1cc(F)ccc1N1CCS(=O)(=O)CC1)c1cccs1: 0.43
- O=C(N[C@H](Cc1ccsc1)C(=O)Nc1ccccc1N1CCOCC1)c1cccs1: 2.3
- O=C(N[C@H](Cc1cccs1)C(=O)Nc1ccccc1N1CCOCC1)c1cccs1: 2.4
- O=C(N[C@H](Cc1ccccc1)C(=O)Nc1cc(F)ccc1N1CCSCC1)c1ccccc1F: 1.15
- O=C(N[C@H](Cc1ccccc1)C(=O)Nc1ccccc1N1CCSCC1)c1ccccc1F: 3
- O=C(N[C@H](Cc1ccccc1)C(=O)Nc1cc(F)ccc1N1CCS(=O)(=O)CC1)c1ccccc1F: 0.4
- O=C(N[C@H](Cc1ccccc1)C(=O)Nc1ccccc1C1CCSCC1)c1cccs1: 21
- O=C(N[C@H](Cc1ccccc1)C(=O)Nc1ccccc1N1CCSCC1)c1cccs1: 2.5
- O=C(N[C@H](Cc1cccs1)C(=O)Nc1ccccc1N1CCOCC1)c1ccccc1F: 2
- O=C(N[C@H](Cc1ccc(O)cc1)C(=O)Nc1cc(F)ccc1N1CCS(=O)(=O)CC1)c1ccccc1F: 1.1
- O=C(N[C@H](Cc1ccccc1)C(=O)Nc1cc(F)ccc1N1CC[S+]([O-])CC1)c1ccccc1F: 0.52
- O=C(N[C@H](Cc1ccsc1)C(=O)Nc1ccccc1N1CCOCC1)c1ccccc1F: 1.9
- O=C(N[C@H](Cc1ccsc1)C(=O)Nc1ccccc1N1CC[S+]([O-])CC1)c1cccs1: 3.4
